Target: HIV-1 Env of pseudovirus BB1012-11.TC21 (HIV-1)
Assay: cell-based or functional assay
experimental.endpoint: neutralization IC80 (µg/mL)
State just the number; it will be interpreted in µg/mL.

Item under review: MS-87 (antibody, V domains shown) VH: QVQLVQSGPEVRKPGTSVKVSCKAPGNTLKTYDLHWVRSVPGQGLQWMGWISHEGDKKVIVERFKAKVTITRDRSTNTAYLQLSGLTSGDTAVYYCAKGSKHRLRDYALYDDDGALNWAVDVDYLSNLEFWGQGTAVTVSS VL: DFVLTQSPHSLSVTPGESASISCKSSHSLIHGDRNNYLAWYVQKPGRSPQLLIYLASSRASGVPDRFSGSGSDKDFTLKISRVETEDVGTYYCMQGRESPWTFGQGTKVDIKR . Reported neutralization IC80?
0.102

Repeat with MS-77 (antibody, V domains shown) VH: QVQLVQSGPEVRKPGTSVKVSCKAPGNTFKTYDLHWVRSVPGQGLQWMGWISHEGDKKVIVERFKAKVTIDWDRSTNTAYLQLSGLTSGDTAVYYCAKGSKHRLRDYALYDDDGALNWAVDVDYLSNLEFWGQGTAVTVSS VL: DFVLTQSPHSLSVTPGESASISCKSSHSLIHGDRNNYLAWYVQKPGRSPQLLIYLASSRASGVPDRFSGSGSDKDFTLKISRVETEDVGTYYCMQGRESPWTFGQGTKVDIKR
0.103

Please answer likewise for MS-74 (antibody, V domains shown) VH: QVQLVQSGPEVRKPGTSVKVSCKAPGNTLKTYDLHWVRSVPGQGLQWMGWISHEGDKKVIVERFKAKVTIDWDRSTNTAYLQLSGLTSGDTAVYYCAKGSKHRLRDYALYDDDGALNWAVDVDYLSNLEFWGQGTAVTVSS VL: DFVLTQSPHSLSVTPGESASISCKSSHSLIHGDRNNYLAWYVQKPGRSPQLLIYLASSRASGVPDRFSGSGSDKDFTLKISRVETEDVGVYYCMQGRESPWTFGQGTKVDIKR
0.093

Same thing, different binder: MS-84 (antibody, V domains shown) VH: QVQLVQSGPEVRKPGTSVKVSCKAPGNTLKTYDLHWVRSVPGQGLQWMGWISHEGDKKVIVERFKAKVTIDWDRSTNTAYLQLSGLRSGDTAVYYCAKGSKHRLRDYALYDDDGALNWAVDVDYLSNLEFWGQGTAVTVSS VL: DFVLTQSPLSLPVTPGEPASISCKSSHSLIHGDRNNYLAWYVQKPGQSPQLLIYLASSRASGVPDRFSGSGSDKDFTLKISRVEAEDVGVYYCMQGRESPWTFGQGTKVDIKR
0.085

# repeat for MS-80 (antibody, V domains shown) VH: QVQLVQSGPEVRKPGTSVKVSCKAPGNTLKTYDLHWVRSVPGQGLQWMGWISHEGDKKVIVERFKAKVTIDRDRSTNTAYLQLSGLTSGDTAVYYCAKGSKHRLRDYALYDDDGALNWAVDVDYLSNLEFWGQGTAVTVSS VL: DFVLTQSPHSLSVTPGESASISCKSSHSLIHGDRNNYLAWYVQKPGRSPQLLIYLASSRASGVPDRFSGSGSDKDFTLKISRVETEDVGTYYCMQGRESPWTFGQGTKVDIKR
0.086
